Reference source for all entries: PubChem BioAssay AID1063

- Assay Method Text: Leishmania major promastigote growth inhibition, primary screen (AID 1063);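 note: promastigotes grown with compound for 44 hours at 28 °C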
- Experimental Context: Leishmania major promastigotes, resazurin fluorescence viability; at 10 µM; hits give high values
Screen size: about 200,000 compounds; about 18,000 (9%) were called active. For the sample, actives were picked, then their nearest neighbours and some compounds at random.
Metric: inhibition (%)
API: value field is a number in %; no unit string.

Field: example entries. Status: answers known.
Molecule | inhibition, %
CCOc1ccc(NC(=O)CN2CCN(CC(=O)Nc3ccc(OC)cc3)CC2)cc1 | 39.6
COc1ccccc1CNC(=O)COc1ccc(C)nc1[N+](=O)[O-] | 0.88
O=C(c1ccccc1Oc1ccccc1)N1CCN(c2ccc(F)cc2)CC1 | 10.2

# context switch: different molecule, same inhibition
For this molecule ( CC1CN(/C=C/C(=O)C(F)(F)F)CC(C)O1 (centres undefined) ), measured inhibition is -1.49
